# Tested on: HeLa S3
# MEASUREMENT PROTOCOL: Selectivity ratio of IC50 for HDAC2 in human HeLaS3 cells to IC50 for full length human C-terminal His-tag HDAC8 expressed in baculovirus expression system
Overview of recorded Ratio IC50 for various compounds

[
  {
    "COMPOUND": "CCCCCC[C@@H](CCCCCC(=O)Nc1ccccc1)C(=O)NO",
    "TGT": "HeLa S3",
    "Ratio IC50": "106 to 187"
  },
  {
    "COMPOUND": "O=C(CCCCCC(Cc1ccccc1)C(=O)NO)Nc1ccccc1 (centres undefined)",
    "TGT": "HeLa S3",
    "Ratio IC50": "33 to 92"
  },
  {
    "COMPOUND": "CCCCCCC(CCCCCC(=O)Nc1ccccc1)C(=O)NO (centres undefined)",
    "TGT": "HeLa S3",
    "Ratio IC50": "49 to 300"
  },
  {
    "COMPOUND": "CCCCCC(CCCCCC(=O)Nc1ccccc1)C(=O)NO (centres undefined)",
    "TGT": "HeLa S3",
    "Ratio IC50": "33 to 92"
  }
]

Reference source: ChEMBL document CHEMBL3877334
